tested_system: MSI2 (full-length, wild type; recombinant MSI2) (Homo sapiens)
Construct: full-length recombinant MSI2, purified; His6-tagged in EMSA (MSI2-His6)
Sequence (Q96DH6 whole entry): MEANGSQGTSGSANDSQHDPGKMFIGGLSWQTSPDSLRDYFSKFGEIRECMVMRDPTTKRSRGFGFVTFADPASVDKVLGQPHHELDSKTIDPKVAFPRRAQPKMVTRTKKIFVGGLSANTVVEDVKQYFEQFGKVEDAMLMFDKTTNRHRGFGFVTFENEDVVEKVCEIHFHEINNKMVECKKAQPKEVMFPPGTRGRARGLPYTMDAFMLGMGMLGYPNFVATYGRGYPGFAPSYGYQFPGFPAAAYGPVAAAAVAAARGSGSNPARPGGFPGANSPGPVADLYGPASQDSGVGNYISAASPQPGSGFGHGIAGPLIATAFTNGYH
method_summary: microscale thermophoresis (MST)
Assay type: binding
readout_type: pKd
Please report pKd as the negative decimal logarithm of the molar concentration, giving only the number.

So what does the record say about pKd for CC(C)(Sc1ccc(CCN(CCCCC2CCCCC2)C(=O)NC2CCCCC2)cc1)C(=O)O ?
5.92
